Measured IC50, listed per entry for reference.
# ASSAY TARGET: r-SgAChE1 (Schizaphis graminum acetylcholinesterase-1) (Schizaphis graminum, UniProt Q9BMJ1)
# Sequence (Q9BMJ1 98-659): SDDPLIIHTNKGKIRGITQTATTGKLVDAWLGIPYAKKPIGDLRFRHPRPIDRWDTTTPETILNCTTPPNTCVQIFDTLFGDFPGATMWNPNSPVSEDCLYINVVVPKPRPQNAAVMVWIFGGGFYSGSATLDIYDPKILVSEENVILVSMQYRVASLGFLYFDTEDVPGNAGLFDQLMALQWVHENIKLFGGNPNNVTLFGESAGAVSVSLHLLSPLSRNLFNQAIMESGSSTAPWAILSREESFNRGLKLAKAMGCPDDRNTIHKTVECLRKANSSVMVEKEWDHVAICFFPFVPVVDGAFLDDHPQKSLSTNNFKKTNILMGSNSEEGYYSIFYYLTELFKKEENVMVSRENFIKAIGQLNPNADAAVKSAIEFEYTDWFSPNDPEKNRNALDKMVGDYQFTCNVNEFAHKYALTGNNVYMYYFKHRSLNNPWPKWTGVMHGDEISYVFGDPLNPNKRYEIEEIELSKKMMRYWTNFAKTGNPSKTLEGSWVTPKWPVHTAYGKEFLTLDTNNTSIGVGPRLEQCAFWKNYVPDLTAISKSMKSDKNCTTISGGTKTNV
# TEST DETAILS: Determination of IC50 for inhibition of purified r-SgAChE1
# Format: biochemical
# MEASUREMENT CONDITIONS: 5 min incubation, room temperature
// units = nM; emit number, no label

INSERT INTO results (compound, numeric_value) VALUES
  ('C=CC[N+](C)(C)c1ccc(CCC(=O)CCc2ccc([N+](C)(C)CC=C)cc2)cc1', 1660);

Please look at the following compound next.
Lab book: IC50 of CNC(=O)Oc1ccc2c(c1)[C@]1(C)CCN(C)[C@@H]1N2C.CNC(=O)Oc1ccc2c(c1)[C@]1(C)CCN(C)[C@@H]1N2C.O=S(=O)(O)O [Eserine, eserine hemisulfate] noted as 199

* * *

# ASSAY TARGET: r-SgAChE1 (Schizaphis graminum acetylcholinesterase-1) (Schizaphis graminum, UniProt Q9BMJ1)
# TEST DETAILS: Determination of IC50 for inhibition of purified r-SgAChE1
# Format: biochemical
# MEASUREMENT CONDITIONS: IC50, 5 min incubation, room temperature
Where a name gives a salt, the structure may show the parent alone.
MEASURED QUANTITY: IC50

Completed entries (count: 2):
INSERT INTO results (compound, result) VALUES
  ('CNC(=O)Oc1cccc2ccccc12 [Carbaryl, carbaryl]', '0.94 µM'),
  ('CCOC(=O)CC(SP(=O)(OC)OC)C(=O)OCC (stereo not drawn) [Malaoxon, malaoxon]', '0.061 µM');

Please look at the following compound next.
Lab book: IC50 of CCN(CC)C(C)CN1c2ccccc2Sc2ccccc21 (stereo not drawn) [Ethopropazine, ethopropazine hydrochloride] noted as 102 µM

* * *

# ASSAY TARGET: r-SgAChE1 (Schizaphis graminum acetylcholinesterase-1) (Schizaphis graminum, UniProt Q9BMJ1)
# TEST DETAILS: Kinetics of substrate hydrolysis
# Assay type: biochemical
# MEASUREMENT CONDITIONS: room temperature, pH 7.0
MEASURED QUANTITY: Vmax

Lab book: Vmax of CC(=O)SCC[N+](C)(C)C.[I-] [ATC, Acetylthiocholine iodide] noted as 133.2 ± 1.6 U/mg Protein

Lab book: Vmax of CC(=O)SC(C)C[N+](C)(C)C.[I-] (stereo not drawn) [AβMTC, acetyl(β-methyl)thiocholine iodide] noted as 106.4 ± 3.0 U/mg Protein

Lab book: Vmax of CCCC(=O)SCC[N+](C)(C)C.[I-] [BTC, S-butyrylthiocholine iodide] noted as 4.4 ± 0.1 U/mg Protein

Lab book: Vmax of CCC(=O)SCC[N+](C)(C)C.[I-] [PTC, propionylthio-choline iodide] noted as 76.7 ± 1.0 U/mg Protein

* * *

# ASSAY TARGET: r-SgAChE1 (Schizaphis graminum acetylcholinesterase-1) (Schizaphis graminum, UniProt Q9BMJ1)
# TEST DETAILS: Kinetics of substrate hydrolysis
# Type: biochemical
# MEASUREMENT CONDITIONS: read-out: KM (Michaelis constant); room temperature, pH 7.0
MEASURED QUANTITY: Km (µM)
// units = µM; emit number, no label

Completed entries (count: 3):
INSERT INTO measurements (compound, numeric_value) VALUES
  ('CC(=O)SCC[N+](C)(C)C.[I-] [ATC, Acetylthiocholine iodide]', 88.3),
  ('CCC(=O)SCC[N+](C)(C)C.[I-] [PTC, propionylthio-choline iodide]', 68.9),
  ('CCCC(=O)SCC[N+](C)(C)C.[I-] [BTC, S-butyrylthiocholine iodide]', 201);

Please look at the following compound next.
Lab book: Km of CC(=O)SC(C)C[N+](C)(C)C.[I-] (stereo not drawn) [AβMTC, acetyl(β-methyl)thiocholine iodide] noted as 114
